B1: 1ZHC (parent)
chain: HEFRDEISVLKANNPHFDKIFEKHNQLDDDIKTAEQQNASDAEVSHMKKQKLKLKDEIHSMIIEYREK

Variants of: B1
Experiment: folding stability dG (cDNA display proteolysis); higher = more stable
Settings: PBS, room temperature
Note to self: values exactly at 0.5 kcal/mol are condition met. So folding stability dG at or above 0.5 kcal/mol is condition met, below is condition not met.

Solved cases below.
- Mutation label: "K19M"
  Label value: "condition met"
- Mutation label: "A12M"
  Label value: "condition met"
- Mutation label: "F21V"
  Label value: "condition not met"
- Mutation label: "A39G"
  Label value: "condition met"
- Mutation label: "A12I"
  Label value: "condition not met"

Could you please find out whether `E57Y` has folding stability dG that meets 0.5 kcal/mol or exceeds it? condition met

API: above_or_equal(metric=folding stability dG, cutoff=0.5 kcal/mol) for item `K23H` condition not met

Check the entry `V44T` : does folding stability dG equal or exceed 0.5 kcal/mol? condition not met

I'd appreciate it if you could say whether `V9K` has folding stability dG at least equal to 0.5 kcal/mol. condition met
